B1: TPR 5TU (parent)
chain: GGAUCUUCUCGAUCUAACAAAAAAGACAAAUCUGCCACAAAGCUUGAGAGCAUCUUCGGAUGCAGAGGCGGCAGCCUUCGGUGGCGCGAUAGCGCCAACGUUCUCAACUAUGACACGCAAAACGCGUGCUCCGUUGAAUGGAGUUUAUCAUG

Variants of: B1
experiment summary: polymerase ribozyme fitness, log enrichment relative to wild type (log ratio); higher = more active; in vitro selection for triplet polymerase activity
Variants at the floor of the assay were thinned out.
measure: polymerase ribozyme fitness (log ratio)

// solved cases for polymerase ribozyme fitness (log ratio) follow
[[record]]
variant_spec = "U53A A66C A91U U104G G124A G141A"
result = "≤ -4.2"

[[record]]
variant_spec = "U56G C57A G81A A107C G117A"
result = "≤ -4.2"

[[record]]
variant_spec = "U4C U6G U55A C93G C103G A150U"
result = "≤ -4.2"

[[record]]
variant_spec = "U53A U56G C57U A73G C87A G143A"
result = "≤ -4.2"

[[record]]
variant_spec = "A3G A29G U82A"
result = "≤ -4.2"


Query block: Sample G42A C85U — what was its polymerase ribozyme fitness (log ratio)?
Result block: ≤ -4.2

Query block: How about G11U C54U U77G G92U U145A A147U ?
Result block: ≤ -4.2
